Target: recombinant human PAPPA (pregnancy associated plasma protein-A) (human, UniProt Q13219 82-1627)
Sequence (Q13219 82-1627 limits assumed): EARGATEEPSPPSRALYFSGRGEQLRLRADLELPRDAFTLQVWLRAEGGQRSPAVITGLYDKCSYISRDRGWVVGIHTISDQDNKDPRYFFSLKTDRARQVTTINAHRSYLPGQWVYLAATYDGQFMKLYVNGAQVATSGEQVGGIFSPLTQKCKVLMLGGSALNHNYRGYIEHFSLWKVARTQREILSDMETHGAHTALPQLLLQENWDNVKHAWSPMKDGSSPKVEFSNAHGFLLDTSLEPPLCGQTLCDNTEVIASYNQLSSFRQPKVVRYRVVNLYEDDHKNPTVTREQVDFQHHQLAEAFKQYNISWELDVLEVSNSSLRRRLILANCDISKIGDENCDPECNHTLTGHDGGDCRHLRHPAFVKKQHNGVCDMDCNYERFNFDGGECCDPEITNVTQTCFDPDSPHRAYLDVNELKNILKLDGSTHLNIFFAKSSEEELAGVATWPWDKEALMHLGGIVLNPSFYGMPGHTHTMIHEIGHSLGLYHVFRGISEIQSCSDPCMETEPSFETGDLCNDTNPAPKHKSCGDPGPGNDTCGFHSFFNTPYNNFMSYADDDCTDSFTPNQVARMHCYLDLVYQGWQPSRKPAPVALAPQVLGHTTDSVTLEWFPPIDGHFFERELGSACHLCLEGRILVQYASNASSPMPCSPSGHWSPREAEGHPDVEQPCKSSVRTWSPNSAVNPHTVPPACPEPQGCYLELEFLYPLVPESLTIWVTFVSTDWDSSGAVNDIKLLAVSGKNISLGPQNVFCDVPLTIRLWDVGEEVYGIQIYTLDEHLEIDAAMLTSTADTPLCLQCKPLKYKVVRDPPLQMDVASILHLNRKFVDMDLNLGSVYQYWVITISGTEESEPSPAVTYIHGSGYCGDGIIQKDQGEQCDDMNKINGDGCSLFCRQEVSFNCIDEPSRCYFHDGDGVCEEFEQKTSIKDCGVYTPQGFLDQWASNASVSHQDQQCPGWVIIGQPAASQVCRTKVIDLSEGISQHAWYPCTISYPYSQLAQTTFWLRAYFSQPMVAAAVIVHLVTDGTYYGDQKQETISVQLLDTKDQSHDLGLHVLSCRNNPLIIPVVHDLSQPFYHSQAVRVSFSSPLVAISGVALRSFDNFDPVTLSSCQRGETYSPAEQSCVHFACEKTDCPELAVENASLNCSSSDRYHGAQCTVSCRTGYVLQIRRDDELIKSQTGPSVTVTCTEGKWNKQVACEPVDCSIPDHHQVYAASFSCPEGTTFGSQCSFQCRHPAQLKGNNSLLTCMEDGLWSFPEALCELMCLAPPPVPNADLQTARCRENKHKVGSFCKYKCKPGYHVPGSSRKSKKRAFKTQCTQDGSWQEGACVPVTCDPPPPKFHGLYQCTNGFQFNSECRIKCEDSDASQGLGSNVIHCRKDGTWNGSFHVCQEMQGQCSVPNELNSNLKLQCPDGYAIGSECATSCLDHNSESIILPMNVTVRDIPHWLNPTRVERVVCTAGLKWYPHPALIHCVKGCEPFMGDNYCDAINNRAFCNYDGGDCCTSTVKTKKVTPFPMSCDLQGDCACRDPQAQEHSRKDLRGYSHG
Test: cell-based or functional assay
Overview of recorded PAPP-A cleavage of IGFBP-4 Mean pIC50 for various binders
I'd appreciate it if you wrote the number followed by its unit.

• TPP-12743 (antibody, human IgG1, kappa, V domains shown) VH: QVQLVQSGAEVKKPGASVKVSCKASGYTFTSYAMHWVRQAPGQRLEWMGWMNAGTGATKSSQKFQGRVTITRDTSASTAYMELSSLRSEDTAVYYCARGPSLETPTTFGMDVWGQGTTVTVSS VL: DIQMTQSPSSVSASVGDRVTITCRASQGISRWLAWYQQKPGKAPKLLIYAASSLQSGVPSRFSGSGSGTDFTLTISSLQPEDFATYYCQQENAYPFTFGGGTKVEIKR = 10 pIC50
• TPP-12821 (antibody, human IgG1, kappa, V domains shown) VH: EVQLVQSGAEVKKPGESLKISCKGSGYSFTSDWIGWVRQAPGKGLEWMGIIYPGGSDTRYSPSFRGQVTISADKSISTAYLQWSSLKASDTAVYYCARGPLRSDYVDVWGQGTMVTVSS VL: EIVMTQSPATLSVSPGERATLSCRASQSVGSNLAWYQQKPGQAPRLLIYRASTRATGIPARFSGSGSGTEFTLTISSLQSEDFAVYYCQQPYVWPITFGGGTKVEIKR = 10.5 pIC50

The measured PAPP-A cleavage of IGFBP-4 Mean pIC50 associated with TPP-12681 (antibody, human IgG1, kappa, V domains shown) VH: EVQLVQSGAEVKKPGESLKISCKGSGYSFTSYWTGWVRQAPGKGLEWMGIIYPGGSVARYSPSFQGQVTISADKSISTAYLQWSSLKASDTAVYYCARGPLRSDYPDVWGQGTMVTVSS VL: EIVMTQSPATLSVSPGERATLSCRASQSVGSYLAWYQQKPGQAPRLLIYRGSTRATGIPARFSGSGSGTEFTLTISSLQSEDFAVYYCQQPYVWPITFGGGTKVEIKR reads 10.1 pIC50

Origin of values: patent US20260226194A1
